# Test: qHTS assay to identify small molecule antagonists of the androgen receptor (AR) signaling pathway - cell viability counter screen (AID 743033; further: nearly all actives have a fitted effect of over 45% in size)
# Reported Conditions: AR-bla HEK293 viability, CellTiter-Glo luminescence, 16 h; series mostly up to 58.5 µM
Inconclusive results are not listed. The source made the active and inactive calls. The call rests on the fitted dose curve; in most records, active means well fitted cell-killing curve with a large enough effect in the repeat runs; inconclusive means weak or mixed curves; inactive means no such curve, though single readings can be large or run the other way.
Hi there, use one of these labels in your reply, thanks! 1 for active, -1 for inactive

# example entries with known answers
Could you check what this test reported for CCC(C)[C@H]1O[C@]2(C=C[C@@H]1C)C[C@@H]1C[C@@H](C/C=C(\C)[C@@H](O[C@H]3C[C@H](OC)[C@@H](O[C@H]4C[C@H](OC)[C@H](NC(C)=O)[C@H](C)O4)[C@H](C)O3)[C@@H](C)/C=C/C=C3\CO[C@@H]4[C@H](O)C(C)=C[C@@H](C(=O)O1)[C@]34O)O2 (stereo partly specified) ? -1

Could you check what this test reported for `COc1ccc2cc([C@H](C)CO)ccc2c1` ? -1

Could you check what this test reported for `CCCCCCCCCCCC(=O)N(CCO)CCO` ? -1

---
Could you check what this test reported for CC(C)CCCC(C)NC(C)C (stereo unspecified) ? -1

Could you check what this test reported for `CNC[C@@H]1CC[C@@H](N)[C@@H](O[C@H]2[C@H](O)[C@@H](O[C@H]3OC[C@](C)(O)[C@H](NC)[C@H]3O)[C@H](N)C[C@@H]2N)O1` ? -1

Could you check what this test reported for `CC(C)N1CCN(c2ccc(OC[C@H]3CO[C@](Cn4cncn4)(c4ccc(Cl)cc4Cl)O3)cc2)CC1` ? -1

Could you check what this test reported for COc1ccc(C2NC(=S)N3C(c4ccc(OC)c(OC)c4)NC(=S)N23)cc1OC (stereo unspecified) ? 1

Could you check what this test reported for `Cc1cc2nc3c(=O)[nH]c(=O)nc-3n(C[C@H](O)[C@H](O)[C@H](O)COP(=O)(O)OP(=O)(O)OC[C@H]3O[C@@H](n4cnc5c(N)ncnc54)[C@H](O)[C@@H]3O)c2cc1C` ? -1

---

# Test: qHTS assay for identifying genotoxic compounds that show differential cytotoxicity against isogenic chicken DT40 cell lines with known DNA damage response pathways - Rad54/Ku70 mutant cell line (AID 743015); further: nearly all actives have a fitted effect of over 60% in size; further: potency means the concentration at half of the fitted maximal effect
# Reported Conditions: DT40 Rad54/Ku70 mutant viability, CellTiter-Glo, 40 h; series mostly up to 66.8 µM
Results filed as inconclusive are left out. Active and inactive are the calls of the source. Calls come from the whole dose curve; as a rule, active = well fitted cell-killing curve with a large enough effect in the repeat runs; inconclusive = weak or mixed curves; inactive = no such curve, though single readings can be large or run the other way.
Reported Endpoint: Potency

Consider the reported Potency for these compounds:
Look up Potency for this compound: `O=C(OCc1ccccc1)c1cccnc1` 6.68 µM (active)

Look up Potency for this compound: `CCCCCCCCCCCCCCCC(=O)OC[C@@H](O)[C@H]1OC[C@H](O)[C@H]1O` inactive

Look up Potency for this compound: `CCC[C@@]1(CCc2ccccc2)CC(O)=C([C@H](CC)c2cccc(NS(=O)(=O)c3ccc(C(F)(F)F)cn3)c2)C(=O)O1` inactive

Look up Potency for this compound: `NC(=O)c1ccc[n+]([C@@H]2O[C@H](COP(=O)([O-])OP(=O)(O)OC[C@H]3O[C@@H](n4cnc5c(N)ncnc54)[C@H](O)[C@@H]3O)[C@@H](O)[C@H]2O)c1` inactive

Now look at this entry.
Look up Potency for this compound: `COc1ccc2c(=O)c(C)c(-c3ccccc3)oc2c1CN(C)C` 18.8 µM (active)

Source: PubChem BioAssay (Tox21)
